The measured values listed here are drawn from paper PMC7042063.

Target chain: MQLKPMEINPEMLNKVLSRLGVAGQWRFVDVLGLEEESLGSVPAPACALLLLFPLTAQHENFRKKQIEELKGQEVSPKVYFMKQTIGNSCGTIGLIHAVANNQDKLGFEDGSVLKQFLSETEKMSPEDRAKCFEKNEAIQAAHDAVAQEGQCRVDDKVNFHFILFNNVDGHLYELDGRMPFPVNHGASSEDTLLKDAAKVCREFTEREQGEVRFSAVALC
Metric Name: IC50 (µM)
Numeric only. Scale: µM

## Input Which IC50 value belongs to C#CCCn1cc(-c2cccc3c2CCN3C(=O)[C@@H]2CCCN2C#N)c(C(F)(F)F)n1 ?
## Output 6.4

###

# System Under Test: UCHL3 (Homo sapiens)
# Test Method Notes: Ub-Rho cleavage assay, purified enzyme
# Format: biochemical
Metric Name: pIC50
pIC50 here is simply -log10 of the concentration when that concentration is written in mol/L.

## Input What measured pIC50 goes with C#CCCn1cc(-c2cccc3c2CCN3C(=O)[C@@H]2CCCN2C#N)c(C(F)(F)F)n1 [compound 2] ?
## Output 5.26

###

# System Under Test: UCHL3 (Homo sapiens, UniProt P15374)
# Sequence (P15374 1-230): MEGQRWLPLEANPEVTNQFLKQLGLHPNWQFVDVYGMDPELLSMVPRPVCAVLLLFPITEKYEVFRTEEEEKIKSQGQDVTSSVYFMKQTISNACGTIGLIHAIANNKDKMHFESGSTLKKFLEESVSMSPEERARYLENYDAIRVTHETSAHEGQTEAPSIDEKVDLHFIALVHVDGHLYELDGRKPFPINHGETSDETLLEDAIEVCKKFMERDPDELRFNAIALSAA
# Test Method Notes: Ub-Rho cleavage assay, purified enzyme, […] min preincubation
# Format: biochemical
Metric Name: IC50 (µM)
Write down the numeric answer in µM and omit the unit.

## Input Report IC50 for N#CN1CCC[C@H]1C(=O)N1CCc2c(-c3cn[nH]c3C(F)(F)F)cccc21 tested on UCHL3 (Homo sapiens, UniProt P15374).
## Output 6.4
